Origin of measurements: patent US20250243261A1

# system-under-test: Ebola GP ectodomain (Mayinga, Zaire, 1976) with the mucin-like domain deleted (Zaire ebolavirus (Mayinga, 1976), UniProt Q05320 33-650)
Record form. Attribute: pKd. Fill in for each entry.
Answers are plain numbers, as −log10 of the molar value.

mAb114 VL F29I Fab (Fab, V domains shown) VH: EVQLVESGGGLIQPGGSLRLSCAASGFALRMYDMHWVRQTIDKRLEWVSAVGPSGDTYYADSVKGRFAVSRENAKNSLSLQMNSLTAGDTAIYYCVRSDRGVAGLFDSWGQGILVTVSS VL: DIQMTQSPSSLSASVGDRITITCRASQAIDNYVAWYQQRPGKVPKLLISAASALHAGVPSRFSGSGSGTHFTLTISSLQPEDVATYYCQNYNSAPLTFGGGTKVEIK :: 9.30
mAb114 VH I41P-D42G-A68T-S79Y-I113T / VL V43A Fab (Fab, V domains shown) VH: EVQLVESGGGLIQPGGSLRLSCAASGFALRMYDMHWVRQTPGKRLEWVSAVGPSGDTYYADSVKGRFTVSRENAKNSLYLQMNSLTAGDTAIYYCVRSDRGVAGLFDSWGQGTLVTVSS VL: DIQMTQSPSSLSASVGDRITITCRASQAFDNYVAWYQQRPGKAPKLLISAASALHAGVPSRFSGSGSGTHFTLTISSLQPEDVATYYCQNYNSAPLTFGGGTKVEIK :: 10.16

Which measured pKd value corresponds to mAb114 VH E72D Fab (Fab, V domains shown) VH: EVQLVESGGGLIQPGGSLRLSCAASGFALRMYDMHWVRQTIDKRLEWVSAVGPSGDTYYADSVKGRFAVSRDNAKNSLSLQMNSLTAGDTAIYYCVRSDRGVAGLFDSWGQGILVTVSS VL: DIQMTQSPSSLSASVGDRITITCRASQAFDNYVAWYQQRPGKVPKLLISAASALHAGVPSRFSGSGSGTHFTLTISSLQPEDVATYYCQNYNSAPLTFGGGTKVEIK ?
10.00
